// provenance: patent US20240360228A1

test_system: T1, human CCR8 (human, UniProt P51685 1-355)
T1 construct: Native CCR8 on human PBMC (CCR8+ CD3+ or CCR8+ CD4+ lymphocytes); also called chemokine (C-C motif) receptor 8
T1 sequence (P51685 whole entry): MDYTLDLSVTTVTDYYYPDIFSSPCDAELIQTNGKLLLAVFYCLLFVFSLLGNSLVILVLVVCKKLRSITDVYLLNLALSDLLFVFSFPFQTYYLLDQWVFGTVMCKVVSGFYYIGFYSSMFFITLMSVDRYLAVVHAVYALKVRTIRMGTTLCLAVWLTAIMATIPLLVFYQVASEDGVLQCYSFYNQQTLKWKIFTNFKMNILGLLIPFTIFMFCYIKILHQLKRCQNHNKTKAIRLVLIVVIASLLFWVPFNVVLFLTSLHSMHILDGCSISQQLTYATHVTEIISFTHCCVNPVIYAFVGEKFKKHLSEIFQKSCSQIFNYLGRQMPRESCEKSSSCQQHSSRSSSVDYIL
experiment_notes: flow blocking, PBMC CCR8+CD4+; competitor PE-433H
measured_property: % Positive cells (%)
# unit: % | format: bare number

What measured % Positive cells goes with AB10 (antibody, V domains shown, Hybridoma monoclonal; also called antibody 10; clone 10) VH: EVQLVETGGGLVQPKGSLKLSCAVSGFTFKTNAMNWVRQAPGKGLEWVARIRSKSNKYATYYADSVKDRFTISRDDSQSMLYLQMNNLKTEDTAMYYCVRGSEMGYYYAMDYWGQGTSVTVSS VL: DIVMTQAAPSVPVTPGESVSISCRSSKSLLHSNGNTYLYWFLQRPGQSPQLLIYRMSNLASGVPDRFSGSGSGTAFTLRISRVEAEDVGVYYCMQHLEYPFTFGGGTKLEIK ?
1.26

Field entry: AB1 (antibody, V domains shown, Hybridoma monoclonal (mouse or rat); Same VH/VL entries as AB2; also called antibody 1; clone 1) VH: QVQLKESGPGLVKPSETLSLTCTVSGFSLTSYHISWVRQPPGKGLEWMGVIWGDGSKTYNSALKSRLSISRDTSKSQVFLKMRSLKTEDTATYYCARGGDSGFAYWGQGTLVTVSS VL: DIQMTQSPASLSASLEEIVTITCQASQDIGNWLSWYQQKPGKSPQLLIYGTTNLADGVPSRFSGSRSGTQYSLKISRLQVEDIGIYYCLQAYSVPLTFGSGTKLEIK
1.5

Field entry: AB13 (antibody, V domains shown, Hybridoma monoclonal; also called antibody 13; clone 13) VH: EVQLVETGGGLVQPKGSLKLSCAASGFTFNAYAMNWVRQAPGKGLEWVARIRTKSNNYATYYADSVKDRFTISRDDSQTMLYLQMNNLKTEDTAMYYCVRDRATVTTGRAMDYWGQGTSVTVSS VL: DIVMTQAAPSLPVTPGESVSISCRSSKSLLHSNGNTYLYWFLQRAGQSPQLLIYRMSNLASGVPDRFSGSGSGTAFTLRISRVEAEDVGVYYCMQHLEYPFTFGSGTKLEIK
1.15
